# TARGET_OR_SYSTEM: human recombinant H-PGDS (Homo sapiens, UniProt O60760)
# Sequence (O60760 whole entry): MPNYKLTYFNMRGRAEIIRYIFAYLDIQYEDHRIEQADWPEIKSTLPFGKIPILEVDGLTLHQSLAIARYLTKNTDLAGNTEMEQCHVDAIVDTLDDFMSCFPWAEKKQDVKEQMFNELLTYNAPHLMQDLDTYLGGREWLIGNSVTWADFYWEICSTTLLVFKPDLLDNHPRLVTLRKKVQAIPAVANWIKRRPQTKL
# TEST_SUMMARY: Fluorescence intensity h-PGDS TBA enzyme assay
# Format: biochemical
# CONDITION: Examples up to 622 (and 3a, 3b)
ENDPOINT_NAME: IC50 (nM)

- MOLECULE: "COc1ccc(CN2CCC(NC(=O)c3ccc(-c4cccc(F)c4)nc3)CC2)cc1OCC(F)F"
  IC50 [nM]: 2.81

(1) CN(C)CCCOc1cccc(CN2CCC(NC(=O)c3ccc(-c4cccc(F)c4)nc3)CC2)c1
(2) O=C(CN1CCC(NC(=O)c2ccc(-c3cccc(F)c3)nc2)CC1)c1ccccc1
(3) Cn1ncc(Cl)c1CN1CCC(NC(=O)c2ccc(-c3cccc(F)c3)nc2)CC1
Lookup: Please list these molecules in decreasing order of IC50. Put the labels in the requested order and write them down.
Found: 2, 1, 3
(2: 3.5 nM, 1: 1.1 nM, 3: 0.445 nM)

* * *

# TARGET_OR_SYSTEM: human recombinant H-PGDS (Homo sapiens)
# TEST_SUMMARY: Fluorescence intensity h-PGDS TBA enzyme assay
# Assay type: biochemical
# CONDITION: Examples up to 622 (and 3a, 3b)
pIC50: −log10 of the molar value.
ENDPOINT_NAME: pIC50

Sample records with pIC50:
- COMPOUND: "COc1cccc(-c2ccnc(N3CCC(NC(=O)c4ccc(-c5cccc(F)c5)nc4)CC3)n2)c1"
  TARGET_OR_SYSTEM: "human recombinant H-PGDS (Homo sapiens)"
  pIC50: 7.16
- COMPOUND: "Cc1nn(-c2ccccc2)c(C)c1CN1CCC(NC(=O)c2ccc(-c3cccc(F)c3)nc2)CC1"
  TARGET_OR_SYSTEM: "human recombinant H-PGDS (Homo sapiens)"
  pIC50: 9.11
- COMPOUND: "CC(C)(C)OC(=O)N1CC(NC(=O)c2ccc(-c3cccc(F)c3)nc2)C1"
  TARGET_OR_SYSTEM: "human recombinant H-PGDS (Homo sapiens)"
  pIC50: 8.53

(I) O=C(NC1CCN(C2CCC(O)(c3ccccc3)CC2)CC1)c1ccc(-c2cccc(F)c2)nc1 (stereo not shown)
(II) C=CCC(C)(C)c1nc2c(N3CCC(NC(=O)c4ccc(-c5cccc(F)c5)nc4)CC3)ncnc2n1C
Lookup: Hello, I am sorting some records. Could you say if I or II has the smaller pIC50 value? // respond with label for picked entry
Found: II

(1) CC(C)n1nnnc1N1CCC(NC(=O)c2ccc(-c3cccc(F)c3)nc2)CC1
(2) Cc1ccccc1-c1c(CN2CCC(NC(=O)c3ccc(-c4cccc(F)c4)nc3)CC2)cnn1C
Lookup: I need your help: which of the pair 1 , 2 has higher pIC50? Choose, then provide that item's label.
Found: 1
(1: 9.50, 2: 9.18)

(a) COc1ccc(CC(C)N2CCC(NC(=O)c3ccc(-c4cccc(F)c4)nc3)CC2)cc1 (stereo not shown)
(b) O=C(NC1CCN(Cc2nc(-c3ccc(F)cc3)cs2)CC1)c1ccc(-c2cccc(F)c2)nc1
Lookup: Which value of pIC50 is smaller, the one for a or the one for b ? Please identify the chosen entry by its label.
Found: b
(b: 8.27, a: 9.63)

(P) CC[C@@H](C)c1nccnc1N1CCC(NC(=O)c2ccc(-c3cccc(F)c3)nc2)CC1
(Q) Cc1cccc(-c2ccc(C(=O)NC3CCN(C)CC3)cn2)c1
Lookup: Please indicate which item has the smaller measured pIC50: P versus Q Please reply using the label of the selected record.
Found: Q
(Q: 7.13, P: 8.50)

(P) O=C(NC1CCN(Cc2csc(-c3ccccc3)n2)CC1)c1ccc(-c2cccc(F)c2)nc1
(Q) O=C(NC1CCN(Cc2ccc(OCCO)cc2)CC1)c1ccc(-c2cccc(F)c2)nc1
Lookup: In the pair P and Q , the larger recorded pIC50 belongs to which? Return value: the label identifying the chosen record.
Found: Q
(Q: 8.91, P: 8.63)

(a) O=C(NC1CCN(c2ccc(C(=O)N3CCC(F)C3)cn2)CC1)c1ccc(-c2cccc(F)c2)nc1 (stereo not shown)
(b) CC(C)(C)OC(=O)N1CCC(NC(=O)c2ccc(-c3cccc(F)c3)nc2)C(c2ccc(F)cc2)C1 (stereo not shown)
Lookup: Of the two listed items, a and b , which carries the larger pIC50 figure? // return label of chosen record
Found: a
(a: 9.19, b: 6.66)
